Tested on: CCRIS mutagenicity, Ames/micronucleus/aberration tests
Assay: CCRIS mutagenicity studies
Conditions: Test System: AMES SALMONELLA TYPHIMURIUM; Strain/Indicator: TA1537; Metabolic Activation: NONE; Method: STANDARD PLATE
The source made the active and inactive calls. No rule for the calls is given here.
reported-property: mutagenic call

compound: CC(C)NCC(O)COc1cccc2c1OCC(O)C2 (configuration not stated)
mutagenic call: inactive; negative
//
compound: CNC(=O)Nc1ccccc1
mutagenic call: inactive; negative
//
compound: O=C1c2ccccc2C(=O)c2c1ccc(O)c2O
mutagenic call: active; positive
//
compound: OC/C=C/c1ccccc1
mutagenic call: inactive; negative
//
compound: CCCCCCCCCCCCCCCCCCCCCCO
mutagenic call: inactive; negative
//
compound: O=S1(=O)OC(c2cc(Br)c(O)c(Br)c2)(c2cc(Br)c(O)c(Br)c2)c2c(Br)c(Br)c(Br)c(Br)c21
mutagenic call: inactive; negative

For this compound ( `CCc1cccc(CC)c1N(COC)C(=O)CCl` ), measured mutagenic call is inactive; negative

For this compound ( `C=CC(=O)OCC(CC)(COC(=O)C=C)COC(=O)C=C` ), measured mutagenic call is inactive; negative

For this compound ( `O=C(O)c1cc2c(c3c1c([N+](=O)[O-])cc1c(O)cccc13)OCO2` ), measured mutagenic call is active; positive

For this compound ( CC1(C)C(C=C(Cl)Cl)C1C(=O)OCc1cccc(Oc2ccccc2)c1 (configuration not stated) ), measured mutagenic call is inactive; negative

For this compound ( `CC1=C2C(=CO[C@H](C)[C@H]2C)C(=O)C(C(=O)O)=C1O` ), measured mutagenic call is inactive; negative

For this compound ( `CC(C)(C)N(CCO)CCO` ), measured mutagenic call is inactive; negative

###

Test system: CCRIS mutagenicity, Ames/micronucleus/aberration tests
Assay: CCRIS mutagenicity studies
Conditions: Test System: AMES SALMONELLA TYPHIMURIUM; Strain/Indicator: TA1538; Metabolic Activation: RAT, LIVER, S-9, AROCLOR 1254; Method: STANDARD PLATE
Activity calls are given as the source filed them. No rule for the calls is given here.
Respond using exactly one of the listed classes: active, inactive

The examples below pair each entry with its known result.
compound: CC(=O)N(O)c1ccc2c(c1)Cc1ccccc1-2
assayed-target: CCRIS mutagenicity, Ames/micronucleus/aberration tests
label: active

compound: O=C1c2ccc(O)c(O)c2C(=O)c2c(O)ccc(O)c21
assayed-target: CCRIS mutagenicity, Ames/micronucleus/aberration tests
label: inactive

compound: O=C(O)CCCc1c[nH]c2ccccc12
assayed-target: CCRIS mutagenicity, Ames/micronucleus/aberration tests
label: inactive

Task: # lookup: test call for CCCC(O)C(CC)CO (stereo unspecified)
Result: inactive

Task: # lookup: test call for `OO`
Result: inactive

Task: # lookup: test call for `Cc1cc(-c2ccc(N=Nc3cc(S(=O)(=O)O)c4ccccc4c3N)c(C)c2)ccc1N=Nc1cc(S(=O)(=O)O)c2ccccc2c1N`
Result: inactive

Task: # lookup: test call for `CSc1ccc(Cl)cc1`
Result: inactive

Task: # lookup: test call for `COc1cc(-c2ccc(N/N=C3/C(=O)c4c(N)cc(S(=O)(=O)O)cc4C=C3S(=O)(=O)O)c(OC)c2)ccc1N/N=C1/C(=O)c2c(N)cc(S(=O)(=O)O)cc2C=C1S(=O)(=O)O`
Result: active

Task: # lookup: test call for `O=S1(=O)OC(c2cc(Br)c(O)c(Br)c2)(c2cc(Br)c(O)c(Br)c2)c2c(Br)c(Br)c(Br)c(Br)c21`
Result: inactive

Task: # lookup: test call for `CCCCOCCOCCO`
Result: inactive

Task: # lookup: test call for `CC(C)(C)N(CCO)CCO`
Result: inactive

###

Test system: CCRIS mutagenicity, Ames/micronucleus/aberration tests
Test: CCRIS mutagenicity studies
Settings: Test System: AMES SALMONELLA TYPHIMURIUM; Strain/Indicator: TA98; Metabolic Activation: NONE; Method: PREINCUBATION
Activity calls are given as the source filed them. How the calls were made is not given here.
Respond using exactly one of the listed classes: active, inactive

compound: Cc1cc2nc3c(=O)[nH]c(=O)nc-3n(C)c2cc1C
label: inactive
//
compound: CCCCN(CC(O)c1ccc([O-])c([N+]#N)c1)N=O (stereo not drawn)
label: active
//
compound: CC(=O)Nc1ccnc2ccccc12
label: inactive
//
compound: CCC#N
label: inactive
//
compound: CCOc1ccc(N=Nc2ccc(-c3ccc(N=Nc4c(O)ccc5cc(S(=O)(=O)O)cc(S(=O)(=O)O)c45)c(C)c3)cc2C)cc1
label: inactive
//
compound: O=C(NO)c1ccccc1
label: active
//
compound: O=C(O)CC[N+](=O)[O-]
label: inactive
//
compound: O[C@H]1[C@H]2O[C@H]2c2c(ccc3cc4c(ccc5ccccc54)nc23)[C@@H]1O
label: active
//
compound: O=C(Cl)c1cccc(Cl)c1
label: inactive
//
compound: O[C@H]1[C@@H]2O[C@@H]2c2c(ccc3cc4c(ccc5ccccc54)nc23)[C@@H]1O
label: active

Task: # lookup: test call for `N#[N+]c1cnc([O-])[nH]c1=O`
Result: active

Task: # lookup: test call for `CCCCCCc1ccc(O)cc1O`
Result: inactive

Task: # lookup: test call for `CCCCCc1cc(O)cc(O)c1`
Result: inactive

###

Tested on: CCRIS mutagenicity, Ames/micronucleus/aberration tests
Assay: CCRIS mutagenicity studies
Conditions: Test System: Ames Salmonella typhimurium; Strain/Indicator: TA98; Metabolic Activation: None; Method: Standard Plate
Activity calls are given as the source filed them. No rule for the calls is given here.
reported-property: mutagenic call

compound: COc1ccc(C(O)(c2cncnc2)C2CC2)cc1 (stereo not given)
reported-property: mutagenic call
value-observed: inactive; negative
//
compound: Oc1cc(Cl)ccc1Oc1ccc(Cl)cc1Cl
reported-property: mutagenic call
value-observed: inactive; negative
//
compound: O=[N+]([O-])C(Cl)(Br)Br
reported-property: mutagenic call
value-observed: inactive; negative
//
compound: CC(=O)Nc1ccc(N)cc1
reported-property: mutagenic call
value-observed: inactive; negative

###

Test system: CCRIS mutagenicity, Ames/micronucleus/aberration tests
Assay: CCRIS mutagenicity studies
Settings: Test System: AMES SALMONELLA TYPHIMURIUM; Strain/Indicator: TA100; Metabolic Activation: RAT, LIVER, S-9, PHENOBARBITAL; Method: STANDARD PLATE
Active and inactive are the calls of the source. The rule behind the calls is not given here.
Respond using exactly one of the listed classes: active, inactive

compound: CC(=O)Nc1ccc2c(c1)Cc1ccccc1-2
label: active

Task: # lookup: test call for `Nc1ccc2cc(S(=O)(=O)O)cc(O)c2c1N=Nc1ccc([N+](=O)[O-])cc1S(=O)(=O)O`
Result: inactive

Task: # lookup: test call for COc1ccc(O)c2c(=O)c3c(OC)cc4c(c3oc12)C1CCOC1O4 (stereo not drawn)
Result: inactive

###

Tested on: CCRIS mutagenicity, Ames/micronucleus/aberration tests
Assay: CCRIS mutagenicity studies
Conditions: Test System: AMES SALMONELLA TYPHIMURIUM; Strain/Indicator: TA100; Method: PREINCUBATION
Activity calls are given as the source filed them. The rule behind the calls is not given here.
reported-property: mutagenic call

Below, each entry is followed by its recorded mutagenic call result.
compound: C[C@H](CCC(=O)O)[C@H]1CC[C@H]2[C@@H]3CCc4cc(O)ccc4[C@H]3CC[C@]12C
mutagenic call: inactive; negative
--
compound: O=C(O)/C=C/c1ccccc1[N+](=O)[O-]
mutagenic call: inactive; negative
--
compound: CC(=O)CN(CC(C)O)N=O (stereo not drawn)
mutagenic call: active; positive
--
compound: CN(CC(O)CO)N=O (stereo not drawn)
mutagenic call: active; positive
--
compound: CC(=O)OC(C)CN(CC(C)OC(C)=O)N=O (stereo not drawn)
mutagenic call: active; positive
--
compound: CCCCN(CC(O)c1ccc([O-])c([N+]#N)c1)N=O (stereo not drawn)
mutagenic call: active; positive

For this compound ( `CC1=CC(=C(c2ccc(N)cc2)c2ccc(N)cc2)C=CC1=N` ), measured mutagenic call is active; positive

For this compound ( CC(O)CN(CC(O)CO)N=O (stereo not drawn) ), measured mutagenic call is active; positive

###

Test system: CCRIS mutagenicity, Ames/micronucleus/aberration tests
Assay: CCRIS mutagenicity studies
Conditions: Test System: AMES SALMONELLA TYPHIMURIUM; Strain/Indicator: TA98(1,8-DNP6); Metabolic Activation: NONE; Method: STANDARD PLATE
Calls of active or inactive are those of the source. No rule for the calls is given here.
Respond using exactly one of the listed classes: active, inactive

The examples below pair each entry with its known result.
structure-notation: CC(=O)Nc1ccc2ccc3ccc(O)c4ccc1c2c34
label: inactive
--
structure-notation: Nc1ccc(/C=C/c2ccc(N)cc2)cc1
label: inactive

Task: # lookup: test call for `O=[N+]([O-])c1cc2cccc([N+](=O)[O-])c2c2ccccc12`
Result: active

Task: # lookup: test call for `COc1cc(-c2ccc(N)c(OC)c2)ccc1N`
Result: inactive

Task: # lookup: test call for `O=[N+]([O-])c1cc2c3c(cccc3c1)-c1ccccc1-2`
Result: inactive

Task: # lookup: test call for `O=[N+]([O-])c1ccc2c(c1)Cc1ccccc1-2`
Result: active

Task: # lookup: test call for `O=[N+]([O-])c1cccc2c1ccc1ccccc12`
Result: active
